Values compiled from patent US9745274B2.

# Tested Target: human organic cation transporter 3 (hOCT3) (Homo sapiens, UniProt O75751)
# Construct: expressed in transfected cells; host or cells: HEK293
# Sequence (O75751 whole entry): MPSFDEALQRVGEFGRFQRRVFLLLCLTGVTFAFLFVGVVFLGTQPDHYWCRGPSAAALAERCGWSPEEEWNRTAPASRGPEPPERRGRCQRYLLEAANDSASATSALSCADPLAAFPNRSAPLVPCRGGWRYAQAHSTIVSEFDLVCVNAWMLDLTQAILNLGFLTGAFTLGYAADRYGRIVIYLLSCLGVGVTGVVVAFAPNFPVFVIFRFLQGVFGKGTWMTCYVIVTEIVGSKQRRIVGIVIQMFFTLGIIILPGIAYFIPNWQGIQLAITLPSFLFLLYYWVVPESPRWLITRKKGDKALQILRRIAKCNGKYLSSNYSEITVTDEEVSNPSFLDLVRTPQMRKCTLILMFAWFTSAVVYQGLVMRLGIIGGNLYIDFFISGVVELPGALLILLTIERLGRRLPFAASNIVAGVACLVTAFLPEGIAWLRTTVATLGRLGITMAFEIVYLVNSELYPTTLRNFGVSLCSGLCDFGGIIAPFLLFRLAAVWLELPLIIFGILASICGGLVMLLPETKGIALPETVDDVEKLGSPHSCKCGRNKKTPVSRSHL
# Protocol Summary: Histamine incorporation experiment in HEK293 cells expressing hOCT3 (OCT3 inhibition activity)
# Type: cell-based
# Test Conditions: HEK293; Compound Concentration 30 μM; 100% minus histamine incorporation rate
Measure Name: inhibition at 30 µM (%)
Could you give me the number in %? Just the number is fine.

"NC(N)=Nc1nc(CCCCNC(=O)CO)cs1" tested on human organic cation transporter 3 (hOCT3) (Homo sapiens, UniProt O75751) gave inhibition at 30 µM: 47.1

Result for "N#C/N=C(\N)NCCCCc1csc(N=C(N)N)n1" , tested on human organic cation transporter 3 (hOCT3) (Homo sapiens, UniProt O75751), inhibition at 30 µM: 51.4

Lab note: molecule "NC(N)=Nc1nc(CCCC/C(N)=N/S(N)(=O)=O)cs1" tested on human organic cation transporter 3 (hOCT3) (Homo sapiens, UniProt O75751); recorded inhibition at 30 µM was 41.9

The observed inhibition at 30 µM for "NC(N)=Nc1nc(CCCC/C(N)=N/S(=O)(=O)C(F)(F)F)cs1" when tested with human organic cation transporter 3 (hOCT3) (Homo sapiens, UniProt O75751) stands at 58.5

For "NC(N)=Nc1nc(CSCCNC(=O)CO)cs1" on human organic cation transporter 3 (hOCT3) (Homo sapiens, UniProt O75751), measured inhibition at 30 µM was 64.8

inhibition at 30 µM value, target or system human organic cation transporter 3 (hOCT3) (Homo sapiens, UniProt O75751), for "NC(N)=Nc1cccc(CSCCC(N)=NS(N)(=O)=O)n1" : 58.6

Reported human organic cation transporter 3 (hOCT3) (Homo sapiens, UniProt O75751) inhibition at 30 µM for item "Cc1nc(CCSCc2ccnc(N=C(N)N)c2)[nH]c(=O)c1CCc1ccccc1" was 77.4

Fill in: human organic cation transporter 3 (hOCT3) (Homo sapiens, UniProt O75751) inhibition at 30 µM for "Cc1nc(CCSCc2cccc(N=C(N)N)n2)[nH]c(=O)c1CCc1ccccc1" = 84.6

Tested on human organic cation transporter 3 (hOCT3) (Homo sapiens, UniProt O75751): "NC(N)=Nc1cc(CSCC/C(N)=N/S(=O)(=O)C(F)(F)F)ccn1" . Observed inhibition at 30 µM: 85

Known value: human organic cation transporter 3 (hOCT3) (Homo sapiens, UniProt O75751) inhibition at 30 µM of the molecule "NC(N)=Nc1cccc(CSCC/C(N)=N/S(=O)(=O)C(F)(F)F)n1" equals 79

Kindly note: human organic cation transporter 3 (hOCT3) (Homo sapiens, UniProt O75751), "NC(N)=Nc1cc(CSCCC(N)=NS(N)(=O)=O)ccn1" , inhibition at 30 µM value reported: 44.2

// inhibition at 30 µM (human organic cation transporter 3 (hOCT3) (Homo sapiens, UniProt O75751)) for "Cc1nc(CCCCc2csc(N=C(N)N)n2)[nH]c(=O)c1CCc1ccccc1" = 88.2

----------
# Tested Target: human organic cation transporter 3 (hOCT3) (Homo sapiens, UniProt O75751)
# Construct: expressed in transfected cells; host or cells: HEK293
# Protocol Summary: Histamine incorporation experiment in HEK293 cells expressing hOCT3 (OCT3 inhibition activity)
# Type: cell-based
# Test Conditions: HEK293, 1 min; Compound Concentration 30 μM; [3H]histamine 100 nM, 1 minute; no inhibitor = 100%; read-out: Histamine Incorporation Rate to Control (%)
Please assign a class to every record based on measured remaining activity at 30 µM, with ranges c1 (below 20%), c2 (20% to below 50%), c3 (50% or more)

Returns: class label. Input: "Cc1nc(CCCCc2csc(N=C(N)N)n2)[nH]c(=O)c1CCc1ccccc1"
c1

Form: Item = "Cc1nc(CCSCc2cccc(N=C(N)N)n2)[nH]c(=O)c1CCc1ccccc1" ; Class = ?
c1

Please report the category associated with "NC(N)=Nc1nc(CCCCNC(=O)CO)cs1" , nothing else.
c3

Bin this entry: "NC(N)=Nc1cc(CSCC/C(N)=N/S(=O)(=O)C(F)(F)F)ccn1"
c1

Tag the class for "NC(N)=Nc1nc(CCCC/C(N)=N/S(=O)(=O)C(F)(F)F)cs1"
c2

Which remaining activity at 30 µM category applies to "NC(N)=Nc1cccc(CSCCC(N)=NS(N)(=O)=O)n1" here?
c2

Hello team, could you let me know which band the following compound falls into: "NC(N)=Nc1nc(CCCC/C(N)=N/S(N)(=O)=O)cs1"
c3

Class? Entry: "NC(N)=Nc1nc(CSCCNC(=O)CO)cs1"
c2

Lab note: which band did "NC(N)=Nc1cccc(CSCC/C(N)=N/S(=O)(=O)C(F)(F)F)n1" land in?
c2

Given "Cc1nc(CCSCc2ccnc(N=C(N)N)c2)[nH]c(=O)c1CCc1ccccc1" , name the class its remaining activity at 30 µM places it in.
c2

Dear colleague, I would appreciate it if you could identify the bin for "NC(N)=Nc1cc(CSCCC(N)=NS(N)(=O)=O)ccn1" and reply at your convenience.
c3
